FYI, the data here is from ChEMBL document CHEMBL1124253.

Assign -Log KB to each entry below.
Target: Serotonin 2 (5-HT2) receptor (Rattus norvegicus) (UniProt P30994+P08909+P14842)
Sequence (P08909 whole entry, looked up): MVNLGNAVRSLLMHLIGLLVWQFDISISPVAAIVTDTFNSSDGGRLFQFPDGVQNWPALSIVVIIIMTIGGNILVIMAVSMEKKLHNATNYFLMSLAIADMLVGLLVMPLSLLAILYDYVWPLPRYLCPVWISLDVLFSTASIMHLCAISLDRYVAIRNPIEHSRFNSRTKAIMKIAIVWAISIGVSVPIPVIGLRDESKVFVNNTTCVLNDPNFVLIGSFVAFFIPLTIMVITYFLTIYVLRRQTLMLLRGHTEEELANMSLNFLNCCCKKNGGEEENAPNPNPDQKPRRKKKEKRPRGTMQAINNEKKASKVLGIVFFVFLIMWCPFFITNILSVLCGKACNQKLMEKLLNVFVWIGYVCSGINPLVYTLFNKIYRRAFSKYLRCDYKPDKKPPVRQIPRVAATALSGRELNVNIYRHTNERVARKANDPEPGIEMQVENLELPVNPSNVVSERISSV
Sequence (P14842 whole entry, looked up): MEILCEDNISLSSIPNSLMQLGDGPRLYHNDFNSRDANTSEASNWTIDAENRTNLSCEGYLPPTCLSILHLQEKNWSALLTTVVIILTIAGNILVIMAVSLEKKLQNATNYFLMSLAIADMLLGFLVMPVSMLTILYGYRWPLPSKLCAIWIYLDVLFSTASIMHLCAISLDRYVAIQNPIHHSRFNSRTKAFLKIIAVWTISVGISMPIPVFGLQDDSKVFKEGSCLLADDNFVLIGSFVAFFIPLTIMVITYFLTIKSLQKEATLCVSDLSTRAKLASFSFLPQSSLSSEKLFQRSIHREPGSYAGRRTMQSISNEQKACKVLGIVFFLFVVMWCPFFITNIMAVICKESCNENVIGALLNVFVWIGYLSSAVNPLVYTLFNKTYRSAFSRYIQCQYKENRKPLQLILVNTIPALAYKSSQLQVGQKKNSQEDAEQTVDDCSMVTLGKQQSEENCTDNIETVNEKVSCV
Sequence (P30994 whole entry, looked up): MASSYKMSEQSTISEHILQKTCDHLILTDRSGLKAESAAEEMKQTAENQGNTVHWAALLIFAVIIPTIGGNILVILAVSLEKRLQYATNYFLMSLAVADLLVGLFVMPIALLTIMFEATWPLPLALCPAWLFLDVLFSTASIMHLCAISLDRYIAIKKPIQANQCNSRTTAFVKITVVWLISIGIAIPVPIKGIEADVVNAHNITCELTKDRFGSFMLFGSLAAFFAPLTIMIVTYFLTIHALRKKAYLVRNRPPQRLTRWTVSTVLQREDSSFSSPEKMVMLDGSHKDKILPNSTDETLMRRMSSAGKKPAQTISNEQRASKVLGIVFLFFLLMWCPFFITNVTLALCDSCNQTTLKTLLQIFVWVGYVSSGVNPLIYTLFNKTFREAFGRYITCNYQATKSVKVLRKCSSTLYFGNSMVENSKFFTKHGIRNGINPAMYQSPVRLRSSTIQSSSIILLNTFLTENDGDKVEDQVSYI
Assay: Binding affinity to the 5-hydroxytryptamine 2 receptor assayed by antagonism of serotonin-induced contractions in the rat jugular vein
Numbers only.

Sample records with -Log KB:
| Molecule | Assayed Target | -Log KB |
| --- | --- | --- |
| CN1C[C@H](C(=O)OC2CCCCC2)CC2c3cccc4c3c(cn4C)CC21 (some centres undefined) | Serotonin 2 (5-HT2) receptor (Rattus norvegicus) (UniProt P30994+P08909+P14842) | 8.12 |
| CC(C)n1cc2c3c(cccc31)C1C[C@@H](C(=O)O[C@H]3CC[C@@H](C)CC3)CN(C)C1C2 (some centres undefined) | Serotonin 2 (5-HT2) receptor (Rattus norvegicus) (UniProt P30994+P08909+P14842) | 7.69 |

Dear colleague, could you please provide -Log KB for the molecules listed below?
1. CC(C)n1cc2c3c(cccc31)C1C[C@@H](C(=O)OC3CCCCC3O)CN(C)C1C2 (some centres undefined)
2. CCC(CC)n1cc2c3c(cccc31)C1C[C@@H](C(=O)OC3CCCCC3)CN(C)C1C2 (some centres undefined)
3. CC(C)n1cc2c3c(cccc31)C1C[C@@H](C(=O)OC3CCCCC3)CN(C)C1C2 (some centres undefined)
4. CC(C)n1cc2c3c(cccc31)C1C[C@@H](C(=O)OC3CCC3)CN(C)C1C2 (some centres undefined)
5. CCN1C[C@H](C(=O)OC2CCCCC2)CC2c3cccc4c3c(cn4C(C)C)CC21 (some centres undefined)
6. CC(C)n1cc2c3c(cccc31)C1C[C@@H](C(=O)OC3CCC(O)CC3)CN(C)C1C2 (some centres undefined)

Result:
1: 9.47; 2: 7.31; 3: 8.67; 4: 8.22; 5: 7.81; 6: 10.2

====

Molecular target: Serotonin 2 (5-HT2) receptor (Rattus norvegicus) (UniProt P30994+P08909+P14842)
Assay: Binding affinity to the 5-hydroxytryptamine 2 receptor assayed by antagonism of serotonin-induced contractions in the rat jugular vein
Endpoint Name: -Log KB
Answers are plain numbers.

| Compound | Reading |
| --- | --- |
| CC(C)n1cc2c3c(cccc31)C1C[C@@H](C(=O)OC3CCCCC3=O)CN(C)C1C2 (some centres undefined) | 9.31 |
| CN1C[C@H](C(=O)OC2CCCCC2)CC2c3cccc4c3c(cn4Cc3ccccc3)CC21 (some centres undefined) | 6.52 |
| CC(C)n1cc2c3c(cccc31)C1C[C@@H](C(=O)O[C@H]3CC[C@H](C)CC3)CN(C)C1C2 (some centres undefined) | 7.21 |
| CC(C)n1cc2c3c(cccc31)C1C[C@@H](C(=O)OC3CCOCC3)CN(C)C1C2 (some centres undefined) | 9.86 |

Report -Log KB for every entry below.
1. CC(C)n1cc2c3c(cccc31)C1C[C@@H](C(=O)OC3CCC(=O)CC3)CN(C)C1C2 (some centres undefined)
2. CC1CCCC(C)C1OC(=O)[C@@H]1CC2c3cccc4c3c(cn4C(C)C)CC2N(C)C1 (some centres undefined)
3. CN1C[C@H](C(=O)OC2CCCCC2)CC2c3cccc4[nH]cc(c34)CC21 (some centres undefined)
4. CCCN1C[C@H](C(=O)OC2CCCCC2)CC2c3cccc4c3c(cn4C(C)C)CC21 (some centres undefined)

Result:
1. 10
2. 7.32
3. 8.05
4. 7.07

Request: Record lookup: for Serotonin 2 (5-HT2) receptor (Rattus norvegicus) (UniProt P30994+P08909+P14842), what -Log KB belongs to CCCCN1C[C@H](C(=O)OC2CCCCC2)CC2c3cccc4c3c(cn4C(C)C)CC21 (some centres undefined) ?
Result: 7.4
